# Test system: OVCAR-8
# ASSAY_EXPLANATION: NCI tumour cell line growth inhibition, 48 h
Active and inactive are the calls of the source. Cut-off read from the data, not from the text of the source: active = GI50 up to about 1.1 µM and inactive = higher.
Answer each item with its documented GI50.

- COMPOUND: "CC(=O)NC1(c2cc3ccccc3s2)CCCCCC1"
  GI50: "50.9 µM (inactive)"
- COMPOUND: "COc1cccc(NC(=O)CC(=O)N2N=C(C)C(/N=N/c3ccc(S(=O)(=O)CCOS(=O)(=O)O)cc3)C2=O)c1 (stereo unspecified)"
  GI50: "3.18 µM (inactive)"
- COMPOUND: "O=C(NN1C(=O)CSC1c1ccco1)c1ccncc1 (stereo unspecified)"
  GI50: "> 100 µM (inactive)"
- COMPOUND: "NC(=S)N/N=C(/CC(=O)c1ccccc1)C(=O)Nc1ccc(Cl)c(Cl)c1"
  GI50: "47.6 µM (inactive)"
- COMPOUND: "O=c1c2ccccc2nc2n1-c1ccccc1SC2"
  GI50: "38 µM (inactive)"

**Q:** Which GI50 is listed for NC(=O)CCC(N=C(N)c1csc(C2OC(CO)C(O)C2O)n1)C(=O)O (stereo unspecified) ?
**A:** > 100 µM (inactive)

* * *

# Tested on: 786-0
# ASSAY_EXPLANATION: NCI tumour cell line growth inhibition, 48 h
Active and inactive are the calls of the source. Cut-off read from the data, not from the text of the source: active = GI50 up to about 1.1 µM and inactive = higher.
// allowed return values: active, inactive

- COMPOUND: "N#C[BH2-][n+]1ccc(C(=O)NNC(c2ccccc2)C(F)(F)F)cc1 (centres undefined)"
  CLASS: "inactive"

**Q:** Short answer needed: outcome of this test for Cn1c(=O)c2nc(CCS)[nH]c2n(C)c1=O ?
**A:** inactive

**Q:** Short answer needed: outcome of this test for COc1cc(C(=O)CC2(O)C(=O)Nc3c(Cl)cc(Cl)cc32)ccc1O (centres undefined) ?
**A:** inactive

**Q:** Short answer needed: outcome of this test for CC(Oc1ccc(Oc2cnc3ccc(Cl)cc3n2)cc1)C(=O)O (centres undefined) ?
**A:** inactive

**Q:** Short answer needed: outcome of this test for Cc1cccc2c(N)c3cccc(C(=O)NCC[N+](C)(C)Cc4ccc([N+](=O)[O-])s4)c3nc12 ?
**A:** inactive

**Q:** Short answer needed: outcome of this test for Oc1ccccc1CNCc1nc2ccccc2[nH]1 ?
**A:** inactive

**Q:** Short answer needed: outcome of this test for COC(=O)c1sc(C(=O)OC)c2c1C[S+]([O-])C2 ?
**A:** inactive

**Q:** Short answer needed: outcome of this test for Cn1cc(NC(=O)c2cc(NC(=O)CCCCCCCC(=O)Nc3cc(C(=O)Nc4cc(C(=O)NCCC(=N)N)n(C)c4)n(C)c3)cn2C)cc1C(=O)NCCC(=N)N ?
**A:** inactive

**Q:** Short answer needed: outcome of this test for COc1cc(Br)cc2nc(-c3cccs3)oc12 ?
**A:** inactive

**Q:** Short answer needed: outcome of this test for COC(=O)C1c2cc3c(c(O)c2CCC1(C)O)C(=O)c1c(O)cc2c(c1C3=O)OC1OC2(C)C(O)C(N(C)C)C1O (centres undefined) ?
**A:** active

* * *

# System: PC-3
# ASSAY_EXPLANATION: NCI tumour cell line growth inhibition, 48 h
Activity calls are given as the source filed them. No stated cut-off is given here; in the data, active = GI50 up to about 1.1 µM and inactive = higher.
QUANTITY_NAME: GI50

Some compounds with recorded GI50:
- COMPOUND: "Cc1cc2c(cc1Cl)Sc1nnc(C)n1S2(=O)=O"
  GI50: "15 µM (inactive)"
- COMPOUND: "CSc1nncc(-c2cc3c(c(SC)n2)CCCC3)n1"
  GI50: "> 100 µM (inactive)"

Hi there! I need GI50 for each item below, if you can.
1. O=[N+]([O-])c1ccc(Cl)c2c([N+](=O)[O-])cccc12
2. O=c1oc2ncccc2n1Cc1ccc([N+](=O)[O-])cc1
3. O=C(O)c1c(O)c2cc(Br)ccc2oc1=O
4. Cc1ccc(C)c(COCCOCn2cc(N3CCOCC3)c(=O)[nH]c2=O)c1
5. CCCCC[C@@H]1OCO[C@@]2(C)/C=C(C)\C=C/C(=O)O[C@H]([C@@H](C)[C@@H](O)[C@H](C)[C@@]3(O)C[C@@H](O[C@H]4C[C@@H](O)[C@H](O)[C@@H](C)O4)[C@H](C)[C@@H](C)O3)[C@@H](OC)/C=C\C=C(\C)C[C@@H]1[C@@H]2O (stereo in doubt)

**A:**
1. 7.85 µM (inactive)
2. > 100 µM (inactive)
3. > 100 µM (inactive)
4. > 100 µM (inactive)
5. < 0.005 µM (active)

Hi there! I need GI50 for each item below, if you can.
1. O=C1CC(c2ccc(Cl)cc2)C2(C(=O)NC(=S)NC2=O)C(c2ccc(Cl)cc2)C1 (centres undefined)
2. Cn1ccnc1Sc1ccc(/C=N/NC(=O)c2ccccc2O)cc1[N+](=O)[O-]

**A:**
["20.1 µM (inactive)", "56.9 µM (inactive)"]

* * *

Answer each item with its documented GI50.
# Test system: HOP-92
# ASSAY_EXPLANATION: NCI tumour cell line growth inhibition, 48 h
Calls of active or inactive are those of the source. No stated cut-off is given here; in the data, active = GI50 up to about 1.1 µM and inactive = higher.

- COMPOUND: "CC(C)(C)c1cc(C2=NN(c3ccccc3)C(c3ccccc3)C2)cc(C(C)(C)C)c1O (centres undefined)"
  GI50: "> 100 µM (inactive)"
- COMPOUND: "O=C(O)CN(CC(=O)O)C1CCCCC1N1CC(=O)OC(=O)C1 (centres undefined)"
  GI50: "> 100 µM (inactive)"
- COMPOUND: "O=C1CC(CC(OCc2ccccc2)C(OCc2ccccc2)C(COCc2ccccc2)OCc2ccccc2)CC(=O)N1 (centres undefined)"
  GI50: "> 100 µM (inactive)"
- COMPOUND: "CC(=O)CCC[C@@H](C)[C@@H]1O[C@H]([C@@]2(C)CCC(=O)O2)C[C@H]2C(CSc3ccccc3)C(=O)O[C@@H]12 (some centres undefined)"
  GI50: "16.3 µM (inactive)"
- COMPOUND: "CC1C2=C(O)CC(C)(C)CC2=NC2=C1C(=O)CC(C)(C)C2 (centres undefined)"
  GI50: "> 100 µM (inactive)"

Hi there! I need GI50 for each item below, if you can.
1. CC(=O)OC1CCC2C3CCc4c(C)ccc(OS(=O)(=O)c5ccccc5)c4C3CCC12C (centres undefined)
2. C=CCN1C(=O)/C(=C/c2ccc(Cl)cc2)N=C1SC/C=C/C
3. Clc1ccccc1NN(Cc1ccncc1)c1ccccc1Cl
4. CCC1(O)C(=O)OCc2c1cc1n(c2=O)Cc2cc3cc(OC)c(OC)cc3nc2-1 (centres undefined)

**A:**
1: 6.55 µM (inactive); 2: 24.2 µM (inactive); 3: 4.6 µM (inactive); 4: > 100 µM (inactive)

* * *

# System: LXFL 529
# ASSAY_EXPLANATION: NCI tumour cell line growth inhibition, 48 h
Active and inactive are the calls of the source. No stated cut-off is given here; in the data, active = GI50 up to about 1.1 µM and inactive = higher.
Answer each item with its documented GI50.

Some compounds with recorded GI50:
- COMPOUND: "NC(CCc1nc(-c2ccc(Cl)cc2)cs1)C(=O)O (stereo unspecified)"
  TARGET_DESC: "LXFL 529"
  GI50: "> 100 µM (inactive)"
- COMPOUND: "NC1(C(=O)O)CCC(C(=O)O)CC1 (stereo unspecified)"
  TARGET_DESC: "LXFL 529"
  GI50: "> 100 µM (inactive)"
- COMPOUND: "Cn1cc(NC(=O)c2cc(NC(=O)CCCCCCCC(=O)Nc3cc(C(=O)Nc4cc(C(=O)NCCC(=N)N)n(C)c4)n(C)c3)cn2C)cc1C(=O)NCCC(=N)N"
  TARGET_DESC: "LXFL 529"
  GI50: "12.4 µM (inactive)"

Hi there! I need GI50 for each item below, if you can.
1. COc1cc(C(=O)CC2(O)C(=O)Nc3c(Cl)cc(Cl)cc32)ccc1O (stereo unspecified)
2. COc1cc2c(cc1OC)C1Cc3sccc3CN1CC2 (stereo unspecified)
3. O=C1N[C@@H]2CCCC[C@@H]2C12CCCCC2
4. NNC(=O)N/N=C1/C(=O)N(c2ccc(Cl)c(Cl)c2)C(=O)C(=O)C1c1nc2ccccc2o1 (stereo unspecified)

**A:**
1: 27.9 µM (inactive); 2: > 100 µM (inactive); 3: > 100 µM (inactive); 4: > 100 µM (inactive)

Hi there! I need GI50 for each item below, if you can.
1. C#CCC[C@@H]1O[C@@]1(C)CC/C=C(\C)CC/C=C/C=O
2. CCOC(=O)C1C(NC(N)=O)N(Cc2ccccc2)C(=O)N1Cc1ccccc1 (stereo unspecified)
3. CC1(C)CC(C)(C)CC(O)(C2(O)CC(C)(C)CC(C)(C)C2)C1
4. Cn1c(=O)c2nc3c4ccccc4c(=O)n(C)c3nc2n(C)c1=O
5. CCOC(=O)C1=C(Nc2ccc(NC3=C(C(=O)OCC)C(=O)CS3)cc2)SCC1=O
6. CCCCCCCOc1ccc(/C=C\c2cc[n+](CCCCCCCC[n+]3ccc(/C=C\c4ccc(OCCCCCCC)cc4)cc3)cc2)cc1
7. NC(=O)CCC(N=C(N)c1csc(C2OC(CO)C(O)C2O)n1)C(=O)O (stereo unspecified)

**A:**
1. 20.1 µM (inactive)
2. > 100 µM (inactive)
3. > 100 µM (inactive)
4. > 100 µM (inactive)
5. 22.1 µM (inactive)
6. 13.3 µM (inactive)
7. > 100 µM (inactive)

Hi there! I need GI50 for each item below, if you can.
1. CCOC(=O)C(=O)Nc1c(C)cccc1CC
2. COc1ccc(OC(C(=O)O)c2ccccc2)c2c1CCCC2=O (stereo unspecified)
3. O=C(NCCO)c1cc2c(cn1)[nH]c1ccccc12

**A:**
["> 100 µM (inactive)", "> 100 µM (inactive)", "> 100 µM (inactive)"]

Hi there! I need GI50 for each item below, if you can.
1. C=C(C)C(=O)OC1C/C(CO)=C\C(O)C/C(C)=C/C2OC(=O)C(=C)C21 (stereo unspecified)
2. O=[N+]([O-])c1ccc2c(Nc3ccccc3-c3ccccc3Nc3c4ccccc4nc4cc([N+](=O)[O-])ccc34)c3ccccc3nc2c1
3. CC(=O)[C@]1(O)Cc2c(O)c3c(c(O)c2[C@@H](OC2CC(N)C(O)C(C)O2)C1)C(=O)c1c(OCc2ccccc2)cccc1C3=O (stereo partly specified)
4. COCOCC/C=C/C=O

**A:**
1. 16.9 µM (inactive)
2. 2.61 µM (inactive)
3. 1.14 µM (inactive)
4. > 100 µM (inactive)
